- Tested on: RAW-Dual
- measurement notes: NF-kB SEAP reporter activity, fold change vs agonist alone; cytotoxicity flag (confluency mask): not cytotoxic; higher = enhanced NF-kB activity
- particulars: agonist: Pam2CSK4 (TLR2/6) 0.1 ug/mL
In all, about 2,900 compounds were measured (“NF-kB SEAP reporter activity, fold change vs agonist alone”: median about 0.99, highest 2% from about 2.6 on). For the sample, the highest values were picked, then their nearest neighbours and some compounds at random.
Categorize each record by its NF-kB SEAP reporter activity using low value = under 0.8, medium value = from 0.8 up to 1, high value = 1 and over

Illustrative cases are given below, each with its answer.
| compound | label value |
| --- | --- |
| COc1ccc(/C=C/C(=O)O)cc1OC (library stock concentration (final ~1000-fold dilution): 10 mM) | high value |
| CC(C(=O)Nc1ccc(Cl)cc1)C1CCC(c2ccnc3ccc(F)cc23)CC1 (stereo unspecified) (library stock concentration (final ~1000-fold dilution): 10 mM) | low value |
| CCN(CCO)CCCC(C)Nc1ccnc2cc(Cl)ccc12.O=S(=O)(O)O (stereo unspecified) (library stock concentration (final ~1000-fold dilution): 10 mM water) | medium value |

Returns: class label. Input: Cc1ccc(NCCN(C)CCNc2ccnc3cc(Cl)ccc23)c2c(=O)c3ccccc3sc12 (library stock concentration (final ~1000-fold dilution): 2 mM)
medium value

Returns: class label. Input: CCC1OC(=O)C(C)(F)C(=O)C(C)C(OC2OC(C)CC(N(C)C)C2O)C(C)(OC)CC(C)C(=O)C(C)C2N(CCCCn3cc(-c4cccc(N)c4)nn3)C(=O)OC12C (stereo unspecified) (library stock concentration (final ~1000-fold dilution): 10 mM)
medium value

Returns: class label. Input: COc1cc(C=CC(=O)CC(=O)C=Cc2ccc(O)c(OC)c2)ccc1O (library stock concentration (final ~1000-fold dilution): 100 mM)
low value

Returns: class label. Input: Cl.Cl.OC(CN1CCN(c2cccc(Cl)c2)CC1)C(c1ccccc1)c1ccccc1 (stereo unspecified) (library stock concentration (final ~1000-fold dilution): 10 mM)
low value

Returns: class label. Input: O=C(O)CCN1C(=O)/C(=C2/C(=O)Nc3ccc(Cl)cc32)SC1=S (library stock concentration (final ~1000-fold dilution): 10 mM)
high value

Returns: class label. Input: COc1ccc(/C=C\c2cc(OC)c(OC)c(OC)c2)cc1O (library stock concentration (final ~1000-fold dilution): 10 mM)
high value

Returns: class label. Input: Clc1ccc(N/N=C(\c2ccccc2)c2ccccn2)nc1 (library stock concentration (final ~1000-fold dilution): 10 mM)
low value

Hey, just so you know, these numbers are from the supplement of paper PMC10037445.
